EXPERIMENTAL SYSTEM: human GLP-1 receptor (human, UniProt P43220 24-463)
TEST: cell-based or functional assay
Starred links: 1 amine or outer side, 2 acyl side, 3 side chain; linkers in the order of their positions; H or OH if unused. Non-standard residues stand in square brackets, D forms with d. Groups on a side chain read outwards from the residue. No end group written: not given here. *: point of attachment. C20 diacid = O=C(O)CCCCCCCCCCCCCCCCCCC(=O)*; C18 diacid = O=C(O)CCCCCCCCCCCCCCCCC(=O)*; γGlu = O=C(O)[C@H](CCC(=O)[*:2])N[*:1]; αMeF = C[C@](N)(Cc1ccccc1)C(=O)O; AEEA = NCCOCCOCC(=O)O; Aib = CC(C)(N)C(=O)O
# note: boundary value 80 pM maps to not satisfied; hGLP-1R EC50 (pM), cAMP below it maps to satisfied

# BINDER, CLASS NAME
data = [
    ("H[Aib]HGS[αMeF]TSDVSK[αMeF]LDSRAAK([AEEA-γGlu-γGlu-C20 diacid])D[αMeF]VQ[Aib]IANT-NH2 [Peptide 279]", "not satisfied"),
    ("H[Aib]HGS[αMeF]TSDVSK[αMeF]LDSRAAK([AEEA-AEEA-γGlu-C18 diacid])DFVQ[Aib]IANT-NH2 (not fully specified; also: Y13: αMePhe per table) [Peptide 287]", "satisfied"),
    ("H[Aib]HGS[αMeF]TSDVSK[αMeF]LDSQAAK([AEEA-AEEA-γGlu-γGlu-C20 diacid])D[αMeF]VQ[Aib]IANT-NH2 [Peptide 256]", "not satisfied"),
    ("H[Aib]HGS[αMeF]TSDVSK[αMeF]LDSRAAK([AEEA-γGlu-C18 diacid])D[αMeF]VQ[Aib]IANT-NH2 [Peptide 262]", "satisfied"),
]
